# protocol.description: qHTS assay to identify small molecule antagonists of the estrogen receptor beta (ER-beta) signaling pathway - cell viability counter screen (AID 1259382); further: nearly all actives have a fitted effect of over 55% in size; further: potency means the concentration at half of the fitted maximal effect
# run.conditions: ER-beta-UAS-bla HEK293T viability, CellTiter-Glo luminescence, 16 h; series mostly up to 92.4 µM
# Excerpt: U.S. Tox21 Program National Center for Advancing Translational Sciences [NCATS] NIH Chemical Genomics Center [NCGC] U.S. Environmental Protection Agency [EPA] National Institutes of Environmental Health Sciences [NIEHS] National Toxicology Program [NTP] U.S. Food and Drug Administration [FDA] Tox21 Assay Overview: Estrogen receptor (ER), a nuclear hormone receptor, plays an important role in development, metabolic homeostasis and reproduction. […]
Results filed as inconclusive are left out. Calls of active or inactive are those of the source. The call rests on the fitted dose curve; in most records, active means well fitted cell-killing curve with a large enough effect in the repeat runs; inconclusive means weak or mixed curves; inactive means flat fitted curve, though single readings scatter.
quantity.name: Potency

stdin: Using the record for CCCCCCCCS(=O)C(C)Cc1ccc2c(c1)OCO2 (stereo not given) , report its Potency.
stdout: inactive

stdin: Record request: Potency value, item `Nc1ccc(N)c2ccccc12`
stdout: 27.3 µM (active)

stdin: // returns reported Potency for input `O=c1[nH]sc2ccccc12`
stdout: 27.3 µM (active)

stdin: Tell me the measured Potency of `C/C=C1/C(=O)C[C@H]2[C@@H]3CCC4=CC(=O)CC[C@]4(C)[C@H]3CC[C@]12C` , please.
stdout: inactive

stdin: Need Potency, item `Clc1ccc2n[nH]nc2c1`
stdout: inactive

Could I get Potency for every one of these entries?
1. CCC1=C[C@@H]2CN(C1)Cc1c([nH]c3ccccc13)[C@@](C(=O)OC)(c1cc3c(cc1OC)N(C)[C@H]1[C@@](O)(C(=O)OC)[C@H](OC(C)=O)[C@]4(CC)C=CCN5CC[C@]31[C@@H]54)C2
2. O=C(NO)C1(NS(=O)(=O)c2ccc(Oc3ccc(F)cc3)cc2)CCOCC1
3. C[n+]1cc2c3c(ccc2c2ccc4cc5c(cc4c21)OCO5)OCO3
4. CC[C@@]1(O)C(=O)OCc2c1cc1n(c2=O)Cc2cc3c(CN(C)C)c(O)ccc3nc2-1
5. Clc1ccc(C(Cn2ccnc2)OCc2ccc(Sc3ccccc3)cc2)c(Cl)c1 (stereo not given)

stdout:
1: inactive; 2: inactive; 3: 3.66 µM (active); 4: inactive; 5: inactive
